This section presents molecules with their documented pIC50 values.
target: human calcium-sensing receptor (CaSR) (Homo sapiens, UniProt P41180); assay: Inhibitory activity on calcium-sensing receptor (CaSR), intracellular calcium increase as indicator (FLIPR, CHO/hCaSR); conditions: CHO cells stably expressing human CaSR; inhibition of intracellular Ca increase induced by extracellular CaCl2
pIC50: −log10 of the molar value.

[[record]]
mol_smiles = "Cc1ccc(C[C@@H]2CCCN2C[C@@H](O)CO[C@H](C)c2ccc(F)cc2CCCCC(=O)O)cc1F"
metric_name = "pIC50"
result = "≥ 5.49"

[[record]]
mol_smiles = "CCC[C@@H](OC[C@H](O)CN1CCC[C@H]1Cc1ccc(C)c(F)c1)c1cccc(OC)c1CCC(=O)O"
metric_name = "pIC50"
result = "≥ 5.50"

[[record]]
mol_smiles = "C[C@@H](OC[C@H](O)CN1CCC[C@H]1Cc1ccc(Cl)c(F)c1)c1cccc(Cl)c1CCC(=O)O"
metric_name = "pIC50"
result = "≥ 5.49"

[[record]]
mol_smiles = "CC[C@@H](OC[C@H](O)CN1CCC[C@H]1Cc1ccc(Cl)c(F)c1)c1cccc(F)c1CCC(=O)O"
metric_name = "pIC50"
result = "≥ 5.49"

[[record]]
mol_smiles = "CC[C@@H](OC[C@H](O)CN1CCC[C@H]1Cc1ccc(C)c(F)c1)c1cccc(OC)c1CCC(=O)O"
metric_name = "pIC50"
result = "≥ 5.48"


Form: molecule = Cc1ccc(C[C@@H]2CCCN2C[C@@H](O)CO[C@H](C)c2cc(F)c(C)cc2CCC(=O)O)cc1F ; pIC50 = ≥ 5.47

Form: molecule = CCc1cc(C[C@@H]2CCCN2C[C@@H](O)CO[C@H](C)c2cccc(F)c2CCC(=O)O)ccc1Cl ; pIC50 = ≥ 5.49

Form: molecule = Cc1cccc([C@@H](C)OC[C@H](O)CN2CCC[C@H]2Cc2ccc(Cl)c(Cl)c2)c1CCC(=O)O ; pIC50 = ≥ 5.49

Form: molecule = CC[C@@H](OC[C@H](O)CN1CCC[C@H]1Cc1ccc(C)c(F)c1)c1cc(F)c(C)cc1CCCCC(=O)O ; pIC50 = ≥ 5.51

Form: molecule = CC[C@@H](OC[C@H](O)CN1CCC[C@H]1Cc1ccc(Cl)c(F)c1)c1ccc(Cl)cc1CCC(=O)O ; pIC50 = ≥ 5.51

Form: molecule = Cc1ccc(C[C@@H]2CCCN2C[C@@H](O)CO[C@H](C)c2ccc(Cl)cc2CCC(=O)O)cc1F ; pIC50 = ≥ 5.48

Form: molecule = C[C@@H](OC[C@H](O)CN1CCC[C@H]1Cc1ccc(F)c(F)c1)c1ccccc1CCC(=O)O ; pIC50 = ≥ 5.45

Form: molecule = Cc1ccc(C[C@@H]2CCCN2C[C@@H](O)CO[C@H](C)c2cccc(OC(C)C)c2CCC(=O)O)cc1F ; pIC50 = ≥ 5.50

Form: molecule = Cc1ccc(C[C@@H]2CCCN2C[C@@H](O)CO[C@H](C)c2cccc(F)c2CCC(=O)O)cc1Cl ; pIC50 = ≥ 5.48

Form: molecule = Cc1ccc(C[C@@H]2CCCN2C[C@@H](O)CO[C@H](C)c2cccc(OC(C)C)c2CCCCC(=O)O)cc1F ; pIC50 = ≥ 5.52

----------
Biological target: human calcium-sensing receptor (CaSR) (Homo sapiens, UniProt P41180)
Sequence (P41180 20-1078): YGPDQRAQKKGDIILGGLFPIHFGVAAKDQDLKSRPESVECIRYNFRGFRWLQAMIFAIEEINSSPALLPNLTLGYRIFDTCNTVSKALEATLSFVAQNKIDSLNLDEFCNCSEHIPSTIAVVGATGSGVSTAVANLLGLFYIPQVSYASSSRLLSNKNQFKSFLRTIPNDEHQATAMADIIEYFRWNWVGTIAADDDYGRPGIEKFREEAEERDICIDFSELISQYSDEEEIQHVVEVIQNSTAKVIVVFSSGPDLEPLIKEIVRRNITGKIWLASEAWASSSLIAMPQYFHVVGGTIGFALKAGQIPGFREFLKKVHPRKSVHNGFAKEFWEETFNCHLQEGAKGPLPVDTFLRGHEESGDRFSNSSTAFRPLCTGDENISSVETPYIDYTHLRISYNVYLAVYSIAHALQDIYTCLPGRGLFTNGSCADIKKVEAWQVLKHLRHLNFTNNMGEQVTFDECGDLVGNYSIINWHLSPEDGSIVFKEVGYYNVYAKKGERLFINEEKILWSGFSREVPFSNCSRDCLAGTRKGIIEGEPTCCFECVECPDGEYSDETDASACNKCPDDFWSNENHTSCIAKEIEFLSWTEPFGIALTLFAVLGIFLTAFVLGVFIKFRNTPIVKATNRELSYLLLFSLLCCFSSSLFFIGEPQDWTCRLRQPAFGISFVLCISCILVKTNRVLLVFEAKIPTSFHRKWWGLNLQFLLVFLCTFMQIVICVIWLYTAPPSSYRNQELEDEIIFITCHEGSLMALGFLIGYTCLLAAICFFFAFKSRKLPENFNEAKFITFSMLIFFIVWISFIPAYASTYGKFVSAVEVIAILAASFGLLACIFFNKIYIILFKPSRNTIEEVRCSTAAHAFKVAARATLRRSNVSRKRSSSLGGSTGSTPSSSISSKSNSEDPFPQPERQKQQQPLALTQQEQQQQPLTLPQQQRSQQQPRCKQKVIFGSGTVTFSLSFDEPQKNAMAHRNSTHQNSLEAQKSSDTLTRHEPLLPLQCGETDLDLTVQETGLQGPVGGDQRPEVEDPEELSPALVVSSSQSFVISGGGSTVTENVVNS
Assay: Inhibitory activity on calcium-sensing receptor (CaSR), intracellular calcium increase as indicator (FLIPR, CHO/hCaSR)
Conditions: CHO cells stably expressing human CaSR; inhibition of intracellular Ca increase induced by extracellular CaCl2
This section presents compounds with their documented IC50 values.

Some compounds with known IC50 results, for comparison:
[[record]]
compound = "Cc1ccc(C[C@@H]2CCCN2C[C@@H](O)CO[C@H](C)c2cc(F)c(Cl)cc2CCC(=O)O)cc1F"
metric_name = "IC50"
result = "≤ 3.23 µM"

[[record]]
compound = "Cc1ccc(C[C@@H]2CCCN2C[C@@H](O)CO[C@H](C)c2cccc(C(F)(F)F)c2CCC(=O)O)cc1F"
metric_name = "IC50"
result = "≤ 3.13 µM"

[[record]]
compound = "COc1cccc([C@@H](C)OC[C@H](O)CN2CCC[C@H]2Cc2ccc(C)c(F)c2)c1CCCCC(=O)O"
metric_name = "IC50"
result = "≤ 3.19 µM"


human calcium-sensing receptor (CaSR) (Homo sapiens, UniProt P41180) assay, compound CC[C@@H](OC[C@H](O)CN1CCC[C@H]1Cc1ccc(C)c(Cl)c1)c1cccc(C)c1CCC(=O)O , recorded IC50 = ≤ 3.28 µM

human calcium-sensing receptor (CaSR) (Homo sapiens, UniProt P41180) assay, compound CC[C@@H](OC[C@H](O)CN1CCC[C@H]1Cc1ccc(C)c(F)c1)c1cccc(F)c1CCC(=O)O , recorded IC50 = ≤ 3.36 µM

human calcium-sensing receptor (CaSR) (Homo sapiens, UniProt P41180) assay, compound CC[C@@H](OC[C@H](O)CN1CCC[C@H]1Cc1ccc(C)c(Cl)c1)c1cccc(Cl)c1CCC(=O)O , recorded IC50 = ≤ 3.15 µM

human calcium-sensing receptor (CaSR) (Homo sapiens, UniProt P41180) assay, compound CCc1cccc(C[C@@H]2CCCN2C[C@@H](O)CO[C@H](C)c2ccccc2CCC(=O)O)c1 , recorded IC50 = ≤ 3.64 µM

human calcium-sensing receptor (CaSR) (Homo sapiens, UniProt P41180) assay, compound CC[C@@H](OC[C@H](O)CN1CCC[C@H]1Cc1ccc(Cl)c(Cl)c1)c1cc(F)ccc1CCC(=O)O , recorded IC50 = ≤ 3.12 µM

human calcium-sensing receptor (CaSR) (Homo sapiens, UniProt P41180) assay, compound CC[C@@H](OC[C@H](O)CN1CCC[C@H]1Cc1ccc(C)c(Cl)c1)c1cc(F)c(F)cc1CCC(=O)O , recorded IC50 = ≤ 3.14 µM

human calcium-sensing receptor (CaSR) (Homo sapiens, UniProt P41180) assay, compound CCC[C@@H](OC[C@H](O)CN1CCC[C@H]1Cc1ccc(C)c(F)c1)c1cc(Cl)ccc1CCC(=O)O , recorded IC50 = ≤ 3.16 µM

human calcium-sensing receptor (CaSR) (Homo sapiens, UniProt P41180) assay, compound CCOc1cccc([C@@H](C)OC[C@H](O)CN2CCC[C@H]2Cc2ccc(C)c(F)c2)c1CCC(=O)O , recorded IC50 = ≤ 3.28 µM

human calcium-sensing receptor (CaSR) (Homo sapiens, UniProt P41180) assay, compound CCc1cc(C[C@@H]2CCCN2C[C@@H](O)CO[C@H](C)c2cc(F)cc(F)c2CCC(=O)O)ccc1Cl , recorded IC50 = ≤ 3.14 µM

human calcium-sensing receptor (CaSR) (Homo sapiens, UniProt P41180) assay, compound CCc1cc(C[C@@H]2CCCN2C[C@@H](O)CO[C@H](CC)c2cccc(OC)c2CCC(=O)O)ccc1Cl , recorded IC50 = ≤ 3.09 µM
